Assay: qHTS of pediatric cancer cell lines to identify multiple opportunities for drug repurposing: Primary screen for NB-EBc1 cells (AID 1347095)
Settings: NB-EBc1 neuroblastoma viability, CellTiter-Glo luminescence, 48 h; series mostly up to 46 µM
Method: Drug repurposing or repositioning has been offered as a strategy for drug development in oncology programs. This approach has special potential for childhood cancers and other rare or orphan diseases, where the expected return on new drug development has been a disincentive to pharmaceuticals. […] We employed a titration-based paradigm (quantitative high-throughput screening or qHTS), where all compounds were tested at multiple concentrations for their effect on cell viability. […]
Inconclusive results are not listed. Active and inactive are the calls of the source. Calls come from the whole dose curve; as a rule, active = well fitted cell-killing curve with a large enough effect; inconclusive = small, poorly fitted or top-dose-only effect; inactive = no such curve, though single readings can be large or run the other way.
# valid calls are class 1 for active, class 0 for inactive; nothing else

Input: Which outcome did this test record for the compound CCOc1ccccc1OCC1CNCCO1 (configuration not stated) ?
Output: class 0

Input: Which outcome did this test record for the compound "O=C(O)c1[nH]n(-c2ccc(S(=O)(=O)O)cc2)c(=O)c1N=Nc1ccc(S(=O)(=O)O)cc1" ?
Output: class 0

Input: Which outcome did this test record for the compound CC(CC(C#N)(c1ccccc1)C(C)C)N(C)C (configuration not stated) ?
Output: class 0

Input: Which outcome did this test record for the compound "Cc1onc(-c2c(Cl)cccc2Cl)c1C(=O)Cl" ?
Output: class 0

Input: Which outcome did this test record for the compound Cc1ccc(C(=O)Oc2ccc(C(O)CNC(C)(C)C)cc2OC(=O)c2ccc(C)cc2)cc1 (configuration not stated) ?
Output: class 0

Input: Which outcome did this test record for the compound "C/C(=N/NC(=O)c1ccncc1)C(=O)O" ?
Output: class 0

Input: Which outcome did this test record for the compound "O=C1CCCc2c(O)cccc21" ?
Output: class 0

Input: Which outcome did this test record for the compound "CCS(=O)(=O)c1ccc(OC)c(C(=O)OC)c1" ?
Output: class 0

Input: Which outcome did this test record for the compound "CCCCCCCCCCCCCCCC[n+]1ccccc1" ?
Output: class 1

Input: Which outcome did this test record for the compound "O=C(O)/C=C(\CC(=O)O)C(=O)O" ?
Output: class 0

Input: Which outcome did this test record for the compound "COc1cc(NS(=O)(=O)c2ccc(N)cc2)nc(C)n1" ?
Output: class 0

Input: Which outcome did this test record for the compound "Nc1ccc(C(=O)N2CC3CC(CN(Cc4ccccc4)C3)C2)cc1" ?
Output: class 0

Input: Which outcome did this test record for the compound "OC1(c2ccc(Cl)cc2)CCNCC1" ?
Output: class 0

Input: Which outcome did this test record for the compound "CC(=O)OC[C@H]1O[C@@H](OC(C)=O)[C@H](OC(C)=O)[C@@H]1OC(C)=O" ?
Output: class 0

Input: Which outcome did this test record for the compound "C[C@H]1C[C@H](O)c2ccsc2S1(=O)=O" ?
Output: class 0

Input: Which outcome did this test record for the compound "CCOC(=O)O[C@]1(C(=O)OCCl)CC[C@H]2[C@@H]3CCC4=CC(=O)C=C[C@]4(C)[C@H]3[C@@H](O)C[C@@]21C" ?
Output: class 0

Input: Which outcome did this test record for the compound CC[N+]1(CC)CCC(=C(c2ccccc2)c2ccccc2)C1C (configuration not stated) ?
Output: class 0

====

Test: qHTS of pediatric cancer cell lines to identify multiple opportunities for drug repurposing: Primary screen for DAOY cells (AID 1347090); note: nearly all actives have a fitted effect of over 55% in size
Details: DAOY medulloblastoma viability, CellTiter-Glo luminescence, 48 h; series mostly up to 46 µM
Inconclusive results are not listed. The source made the active and inactive calls. Calls follow the shape of the dose curve; as a rule, active = well fitted cell-killing curve with a large enough effect; inconclusive = small, poorly fitted or top-dose-only effect; inactive = flat fitted curve, though single readings scatter.
# valid calls are Yes (active), No (inactive); nothing else

Input: Which outcome did this test record for the molecule "O=[N+]([O-])c1ccc(O)c2ncccc12" ?
Output: Yes

Input: Which outcome did this test record for the molecule "CN1C(=O)c2ccccc2C1=O" ?
Output: No

Input: Which outcome did this test record for the molecule "CC(C)C(C)(C)C(C)(C)C(C)(C)S" ?
Output: No

Input: Which outcome did this test record for the molecule "CCOC(=O)NNc1nncc2ccccc12" ?
Output: No

Input: Which outcome did this test record for the molecule CC(CC1c2ccccc2CCc2ccccc21)CN(C)C (stereo unspecified) ?
Output: No

Input: Which outcome did this test record for the molecule CC(C)OC(=O)c1cc2c(OCC(O)CNC(C)(C)C)cccc2[nH]1 (stereo unspecified) ?
Output: No

// data source = PubChem BioAssay (NCATS)
